Can you tell me activity, negative = cell killing for the items I'm about to list?
assay: Drug repurposing screens with cells derived from glioblastoma tumor samples (AID 1345199); settings: GBM patient neurospheres viability, ATP luminescence, 48 h; at 45.9 µM (top of the series); tumour line D; further: on the % scale 0 is the no-effect control and ±100 the full control effect
Inconclusive results are not listed.
Numbers only, in %.

// solved cases for activity, negative = cell killing follow
Molecule	activity, negative = cell killing / %
O=C(O)c1cccnc1Nc1cccc(C(F)(F)F)c1	-4.12
CN(c1nccc(=O)[nH]1)C1CCN(c2nc3ccccc3n2Cc2ccc(F)cc2)CC1	-20
O=C(c1ccccc1)c1ccc2n1CCC2C(=O)O (stereo not given)	-4.33

Give measured activity, negative = cell killing for every item shown.
1. CCOC(=O)c1c(C)n(C)c2ccc(O)cc12
2. CC[C@]1(O)C[C@H]2CN(CCc3c([nH]c4ccccc34)[C@@](C(=O)OC)(c3cc4c(cc3OC)N(C=O)[C@H]3[C@@](O)(C(=O)OC)[C@H](OC(C)=O)[C@]5(CC)C=CCN6CC[C@]43[C@@H]65)C2)C1
3. CC(C)[C@H](N)C(=O)OCCOCn1cnc2c(=O)[nH]c(N)nc21
4. CCC1=C(C)CN(C(=O)NCCc2ccc(S(=O)(=O)NC(=O)NC3CCC(C)CC3)cc2)C1=O (stereo not given)
5. Nc1cc(C(Cl)=C(Cl)Cl)c(S(N)(=O)=O)cc1S(N)(=O)=O
6. NC(=O)Cc1cccc(C(=O)c2ccccc2)c1N

1: -23.4; 2: -44.9; 3: -4.6; 4: -28.4; 5: 2.04; 6: -28

Supply reported activity, negative = cell killing belonging to this molecule: CC1Cc2ccccc2N1NC(=O)c1ccc(Cl)c(S(N)(=O)=O)c1 (stereo not given) -0.642
